assay: Plasma and brain pharmacokinetics in mice; format: in vivo, FVB or CD-1 mice; settings: mouse, brain, 5 mg/kg, oral, single dose, read-out: Brain T½ (converted)
Mark Y only for half-life values smaller than 1 h; exact matches and larger values are N.

Example results:
>  <COMPOUND>
COc1ccc2c(c1)C(=O)N(c1ccc(C(C)(C)C)cc1)C2

>  <CATEGORY>
Y

$$$$
>  <COMPOUND>
CC(C)c1ccc(N2Cc3cc4c(cc3C2=O)OCCO4)cc1

>  <CATEGORY>
Y

$$$$
>  <COMPOUND>
COCc1ccc2c(c1)C(=O)N(c1ccc(C(C)C)cc1)C2

>  <CATEGORY>
N

$$$$
>  <COMPOUND>
Br.COCC(C)c1ccc(N2Cc3ccc(C)cc3C2=O)cc1 (centres unmarked)

>  <CATEGORY>
N

$$$$

Q. Record COc1ccc2c(c1)C(=O)N(c1ccc(C(C)C(=O)O)cc1)C2 (centres unmarked) : is its half-life strictly below 1 h?
A. N
